# test-system: TRPV1 (Homo sapiens, UniProt Q8NER1)
# Sequence (Q8NER1 whole entry): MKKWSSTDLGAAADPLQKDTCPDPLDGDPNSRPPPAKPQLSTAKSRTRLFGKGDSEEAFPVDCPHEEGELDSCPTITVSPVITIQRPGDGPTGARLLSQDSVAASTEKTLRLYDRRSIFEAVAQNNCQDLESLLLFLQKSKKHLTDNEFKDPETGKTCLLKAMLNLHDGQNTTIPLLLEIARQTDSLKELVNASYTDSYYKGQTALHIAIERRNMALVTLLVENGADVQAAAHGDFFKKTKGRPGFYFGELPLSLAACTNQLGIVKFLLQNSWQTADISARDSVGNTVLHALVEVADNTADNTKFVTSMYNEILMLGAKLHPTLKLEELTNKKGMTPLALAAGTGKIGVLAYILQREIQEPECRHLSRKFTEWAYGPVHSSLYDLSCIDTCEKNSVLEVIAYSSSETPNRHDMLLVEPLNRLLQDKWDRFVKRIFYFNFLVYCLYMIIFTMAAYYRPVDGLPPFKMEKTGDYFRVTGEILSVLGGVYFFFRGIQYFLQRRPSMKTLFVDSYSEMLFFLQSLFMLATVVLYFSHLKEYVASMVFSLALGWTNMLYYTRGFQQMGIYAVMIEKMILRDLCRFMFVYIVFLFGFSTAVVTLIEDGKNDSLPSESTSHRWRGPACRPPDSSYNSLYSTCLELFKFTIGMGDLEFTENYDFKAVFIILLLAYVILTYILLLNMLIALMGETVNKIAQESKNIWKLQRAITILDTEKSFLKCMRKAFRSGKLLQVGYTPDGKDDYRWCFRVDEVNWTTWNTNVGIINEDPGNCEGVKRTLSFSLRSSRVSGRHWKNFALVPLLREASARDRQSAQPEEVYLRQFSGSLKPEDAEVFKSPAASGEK
# method-summary: ^45Ca^2+ uptake assay, stimulation by agonists in MCF-7
measured-attribute: pEC50
Conceptually, pEC50 converts a concentration in mol/L into minus its log10.

Return pEC50 for the following compound: `C=C(C)[C@]12C[C@@H](C)[C@@]34O[C@](Cc5ccccc5)(O[C@@H]1[C@@H]3C=C(COC(=O)Cc1ccc(O)c(OC)c1)C[C@]1(O)C(=O)C(C)=C[C@@H]41)O2`
7.62

Return pEC50 for the following compound: CCCCC/C=C\C/C=C\C/C=C\C/C=C\CCCC(=O)NCCO [Anandamide, anandamide]
6.96

These measurements were taken from paper PMC4278051.
